- System: BLK
- Stated conditions: Compound Concentration (nM):1000;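 further: KINOMEscan scanMAX binding as percent activity remaining versus control; lower means stronger binding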
Quick reference: Percent Control of the listed items.

[
  {
    "Compound": "CN(C)c1cc2c(Nc3ccc4c(cnn4Cc4ccccc4)c3)ncnc2cn1 [GW282974X]",
    "Percent Control, %": 80
  },
  {
    "Compound": "NS(=O)(=O)c1ccc(N/N=C2\\C(=O)Nc3ccc(-c4cnco4)cc32)cc1",
    "Percent Control, %": 63
  },
  {
    "Compound": "COc1cc(C)c(N(C)C(=O)CN(C)C)cc1Nc1nc(Nc2cccc(F)c2C(N)=O)c2cc[nH]c2n1",
    "Percent Control, %": 100
  },
  {
    "Compound": "COC(=O)Nc1nc2ccc(Oc3ccc(NC(=O)Nc4cc(C(F)(F)F)ccc4F)cc3)cc2s1.Cl [GW693917A]",
    "Percent Control, %": 61
  },
  {
    "Compound": "NS(=O)(=O)c1ccc(N/N=C2\\C(=O)Nc3ccc(C(=O)NCc4ccncc4)cc32)cc1 [GW300657X]",
    "Percent Control, %": 99
  },
  {
    "Compound": "CCn1c(-c2nonc2N)nc2c(C#CC(C)(C)O)nc(OCCNC)cc21.Cl",
    "Percent Control, %": 96
  },
  {
    "Compound": "CN(C)CCNC(=O)Nc1ccc(N(C)c2ccnc(Nc3ccc(CS(C)(=O)=O)cc3)n2)cc1.Cl [GW830900A]",
    "Percent Control, %": 93
  },
  {
    "Compound": "Cl.O=C(Nc1ccc(Oc2ccc3[nH]c(NC(=O)c4ccccc4)nc3c2)cc1)Nc1cc(C(F)(F)F)ccc1F [GW709042A]",
    "Percent Control, %": 98
  },
  {
    "Compound": "COc1ccc2[nH]c3c4[nH]c5ccc(OC)cc5c4c4c(c3c2c1)C(=O)NC4=O [GW296115X]",
    "Percent Control, %": 71
  },
  {
    "Compound": "CC1=C(C(=O)Nc2ccc3[nH]ncc3c2)C(c2ccc(Cl)c(Cl)c2)CC(=O)N1 (stereo not drawn) [GSK299115A]",
    "Percent Control, %": 91
  },
  {
    "Compound": "Cl.O=C(Nc1ccc(Oc2ccc3[nH]c(NC(=O)c4ccco4)nc3c2)cc1)Nc1cc(C(F)(F)F)ccc1F [GW683134A]",
    "Percent Control, %": 70
  },
  {
    "Compound": "COc1cccc(-n2ncc3c(N/N=C/c4ccncc4)ncnc32)c1 [GW784752X]",
    "Percent Control, %": 45
  }
]

====

- Tested on: PIK3CA(H1047Y)
- Stated conditions: Compound Concentration (nM):1000

[
  {
    "Compound": "Cl.O=C(O[C@H]1CN[C@H](C#Cc2cc3ncnc(Nc4ccc5c(cnn5Cc5ccccc5)c4)c3s2)C1)N1CCOCC1 [GSK200398A]",
    "Result units": "%",
    "Percent Control": 100
  },
  {
    "Compound": "NS(=O)(=O)c1ccc(N/N=C2\\C(=O)Nc3ccc(Cl)cc32)cc1 [GW280670X]",
    "Result units": "%",
    "Percent Control": 100
  },
  {
    "Compound": "COc1cccc(-n2ncc3c(N/N=C/c4ccncc4)ncnc32)c1 [GW784752X]",
    "Result units": "%",
    "Percent Control": 100
  },
  {
    "Compound": "CN(C)c1cc2c(Nc3ccc4c(cnn4Cc4ccccc4)c3)ncnc2cn1 [GW282974X]",
    "Result units": "%",
    "Percent Control": 70
  },
  {
    "Compound": "COc1cc2ncnc(Nc3ccc4c(cnn4Cc4ccccc4)c3)c2cc1OC.Cl [GW282449A]",
    "Result units": "%",
    "Percent Control": 100
  },
  {
    "Compound": "NS(=O)(=O)c1ccc(Nc2ncc(-c3ccccc3)o2)cc1 [GW572399X]",
    "Result units": "%",
    "Percent Control": 100
  },
  {
    "Compound": "O=C1Nc2ccc(C(=O)c3ccco3)cc2C1=Cc1cc(Cl)c(O)c(Cl)c1 [GW406108X]",
    "Result units": "%",
    "Percent Control": 79
  },
  {
    "Compound": "Cc1cc(O)cc(C)c1/C=C/c1cncc(C(N)=O)c1 [GW435821X]",
    "Result units": "%",
    "Percent Control": 100
  },
  {
    "Compound": "COc1cc(/C=N/Nc2ncnc3[nH]ncc23)ccc1O [GW578748X]",
    "Result units": "%",
    "Percent Control": 84
  },
  {
    "Compound": "NS(=O)(=O)c1ccc(N/N=C2\\C(=O)Nc3ccc(-c4cnco4)cc32)cc1",
    "Result units": "%",
    "Percent Control": 87
  },
  {
    "Compound": "Nc1ncnc2occ(-c3ccc(NC(=O)Nc4cc(C(F)(F)F)ccc4F)cc3)c12 [GW770249X]",
    "Result units": "%",
    "Percent Control": 100
  },
  {
    "Compound": "COc1cccc(-c2c[nH]c3c(N/N=C/c4ccncc4)ncnc23)c1 [GW814408X]",
    "Result units": "%",
    "Percent Control": 78
  },
  {
    "Compound": "Cl.O=C(Nc1ccc(Oc2ccc3[nH]c(NC(=O)c4ccco4)nc3c2)cc1)Nc1cc(C(F)(F)F)ccc1F [GW683134A]",
    "Result units": "%",
    "Percent Control": 100
  },
  {
    "Compound": "COc1ccc(COc2ccc(Cc3cnc(N)nc3N)cc2OC)cc1 [GW632580X]",
    "Result units": "%",
    "Percent Control": 100
  }
]
